Origin of values: patent US20050234046A1

# pEC50 annotations
Biological target: PPAR alpha (Homo sapiens, UniProt Q07869)
Sequence (Q07869 239-466 limits assumed): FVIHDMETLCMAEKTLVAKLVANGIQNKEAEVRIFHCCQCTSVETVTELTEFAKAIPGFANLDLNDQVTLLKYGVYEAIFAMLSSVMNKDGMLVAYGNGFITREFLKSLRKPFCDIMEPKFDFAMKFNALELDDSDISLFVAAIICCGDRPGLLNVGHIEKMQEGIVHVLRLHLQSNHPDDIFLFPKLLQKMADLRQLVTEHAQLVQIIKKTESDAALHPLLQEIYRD
Experiment: Transient transfection (transactivation) assay in CV-1 cells, GAL4-PPAR chimera, luciferase reporter
pEC50: −log10 of the molar value.

1. O=C(O)Cc1cc(C(F)(F)F)cc(S(=O)(=O)N2CCN(c3ccc(C(F)(F)F)cn3)CC2)c1	4.00 to 5.30
2. CC(C)(Oc1cccc(S(=O)(=O)N2CCN(c3ccc(C(F)(F)F)cc3)CC2)c1)C(=O)O	4.00 to 5.30
3. Cc1cc(CC(=O)O)cc(S(=O)(=O)N2CCN(c3ccc(OC(F)(F)F)cc3)[C@@H](C)C2)c1	4.00 to 5.30
4. O=C(O)Cc1cccc(S(=O)(=O)N2CCN(c3ccc(C(F)(F)F)cc3Br)CC2)c1	> 5.30
5. O=C(O)COc1cccc(S(=O)(=O)N2CCN(c3ccc(Cl)c(Cl)c3)CC2)c1	< 4.00

Q: State its pEC50: O=C(O)Cc1cccc(S(=O)(=O)N2CCN(C3CCCCC3)CC2)c1
Result: < 4.00

Q: State its pEC50: O=C(O)Cc1cc(S(=O)(=O)N2CCN(c3ccc(C(F)(F)F)cc3)CC2)ccc1O
Result: 4.00 to 5.30

Q: State its pEC50: C[C@@H]1CN(c2ccc(C(F)(F)F)c(F)c2)C[C@H](C)N1S(=O)(=O)c1cccc(CC(=O)O)c1
Result: 4.00 to 5.30

###

# EC50 annotations
target: PPAR gamma (Homo sapiens, UniProt P37231); assay: Transient transfection (transactivation) assay in CV-1 cells, GAL4-PPAR chimera, luciferase reporter
Sequence (P37231 238-503 limits assumed): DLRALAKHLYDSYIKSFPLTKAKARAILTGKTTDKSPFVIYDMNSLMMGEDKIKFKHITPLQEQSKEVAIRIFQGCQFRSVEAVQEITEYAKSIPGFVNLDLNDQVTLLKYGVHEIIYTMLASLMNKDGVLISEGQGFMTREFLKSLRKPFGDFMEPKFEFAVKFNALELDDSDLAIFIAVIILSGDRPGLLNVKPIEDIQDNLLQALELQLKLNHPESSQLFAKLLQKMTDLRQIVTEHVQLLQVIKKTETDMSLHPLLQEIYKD

Reference set (5 entries):
1) Cc1ccc(CC(=O)O)cc1S(=O)(=O)N1CCN(c2ccc(Cl)c(Cl)c2)CC1	5 to 100 µM
2) Cc1ccc(S(=O)(=O)N2CCN(c3ccc(C(F)(F)F)c(F)c3)C[C@@H]2C)cc1CC(=O)O	5 to 100 µM
3) Cc1ccc(S(=O)(=O)N2CCN(c3ncc(Cl)cn3)CC2)cc1CC(=O)O	< 5 µM
4) Cc1cc(CC(=O)O)cc(S(=O)(=O)N2C[C@@H](C)N(c3ccc(C(F)(F)F)cn3)[C@@H](C)C2)c1	< 5 µM
5) O=C(O)Cc1cccc(S(=O)(=O)N2CCN(c3ccc(OC(F)(F)F)cc3)CC2)c1	> 100 µM

Q: State its EC50: Cc1ccc(S(=O)(=O)N2CCN(c3ccc(C(F)(F)F)cn3)CC2)cc1CC(=O)O
Result: < 5 µM

Q: State its EC50: COc1ccc(CC(=O)O)cc1S(=O)(=O)N1CCN(c2ccc(C(F)(F)F)cc2)CC1
Result: 5 to 100 µM

Q: State its EC50: Cc1ccc(S(=O)(=O)N2CCC(c3nc(C(F)(F)F)cs3)CC2)cc1CC(=O)O
Result: 5 to 100 µM

Q: State its EC50: Cc1ccc(S(=O)(=O)N2CCN(c3ccc(Cl)cc3)CC2)cc1CC(=O)O
Result: 5 to 100 µM

Q: State its EC50: CCC1CN(c2ccc(C(F)(F)F)c(Cl)c2)CCN1S(=O)(=O)c1ccc(C)c(CC(=O)O)c1 (centres unmarked)
Result: > 100 µM

Q: State its EC50: Cc1ccc(S(=O)(=O)N2[C@H](C)CN(c3ccc(C(F)(F)F)c(Cl)c3)C[C@@H]2C)cc1CC(=O)O
Result: > 100 µM

Q: State its EC50: C[C@H]1CN(c2ccc(C(F)(F)F)c(F)c2)CCN1S(=O)(=O)c1cccc(CC(=O)O)c1
Result: 5 to 100 µM

Q: State its EC50: Cc1ccc(S(=O)(=O)N2CCCC(c3ccc(C(F)(F)F)cc3)C2)cc1CC(=O)O (centres unmarked)
Result: 5 to 100 µM

Q: State its EC50: O=C(O)COCc1cccc(S(=O)(=O)N2CCN(c3ccc(C(F)(F)F)cc3)CC2)c1
Result: > 100 µM
